Values compiled from patent US12503436B2.

target: STING (Homo sapiens, UniProt Q86WV6, G230A/H232R/R293Q/R71H); assay: STING reporter assay in THP1-Dual KO-IFNAR2 cells (2′3′cGAMP stimulation, luciferase reporter); details: 15 μM 2′3′cGAMP stimulation, 24 h, read-out: Pharmaron, THP1_IFNAR2 STING 24 h Luci Normalized: GeoMean EC50
Sequence (Q86WV6 whole entry R71H/G230A/H232R/R293Q): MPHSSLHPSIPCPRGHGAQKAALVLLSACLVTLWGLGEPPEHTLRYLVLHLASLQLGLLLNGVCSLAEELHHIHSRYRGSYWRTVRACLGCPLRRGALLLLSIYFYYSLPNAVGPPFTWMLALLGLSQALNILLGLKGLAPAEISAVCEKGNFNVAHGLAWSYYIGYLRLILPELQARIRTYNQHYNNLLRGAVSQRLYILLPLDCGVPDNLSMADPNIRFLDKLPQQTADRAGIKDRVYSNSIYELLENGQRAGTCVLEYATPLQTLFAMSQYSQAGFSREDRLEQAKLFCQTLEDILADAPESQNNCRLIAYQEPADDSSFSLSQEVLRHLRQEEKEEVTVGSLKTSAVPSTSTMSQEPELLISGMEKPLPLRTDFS
recorded.metric: EC50

// query Sample CC(=O)Nc1c[nH]c2ccc(OCC3Cc4cnn(CC(F)(F)F)c4C3)cc12 (centres unmarked) [Compound 444] — what was its EC50?
// result 5000 to 100000 nM

// query Reported EC50 for O=C(Nc1c[nH]c2ccc(CCOc3ccc(C(F)(F)F)cc3)cc12)[C@H]1C[C@@H](O)C1 [Compound 179] : what is it?
// result 200 to 1000 nM

// query For the compound O=C(Nc1c[nH]c2ccc(O[C@H]3C[C@@H](c4ccc(C(F)(F)F)cc4)C3)cc12)C1CC1(F)F (some centres unmarked) [Compound 364] , what EC50 is on record?
// result 40 to 200 nM

// query Given the entry CC1(C(=O)Nc2c[nH]c3ccc(O[C@H]4C[C@@H](c5ccc(C(F)(F)F)nc5)C4)cc23)CC1 [Compound 579] , report its measured EC50.
// result 200 to 1000 nM

// query Give its EC50 value. Item: CC[C@H](O)C(=O)Nc1c[nH]c2ccc(OCCc3ccc(C(F)(F)F)cc3)cc12 [Compound 430]
// result 40 to 200 nM

// query # query: EC50 of entry CC(=O)Nc1c[nH]c2ccc(OCC[C@H]3CC[C@@H](C(F)(F)F)CC3)cc12 (single isomer, unassigned) [Compound 454]
// result 200 to 1000 nM

// query Looking for the measured EC50 of O=C(Nc1c[nH]c2ccc(CCOc3ccc(C(F)(F)F)cc3)cc12)C1CC(F)C1 (centres unmarked) [Compound 593] , can you help?
// result 40 to 200 nM

// query Can you look up the measured EC50 of CC1(C(=O)Nc2c[nH]c3ccc(CCOc4ccc(C(F)(F)F)cc4)cc23)CCCO1 (centres unmarked) [Compound 396] for me?
// result 200 to 1000 nM

// query Request the reported EC50 associated with CC1(C(=O)Nc2c[nH]c3ccc(O[C@H]4C[C@H](c5ccc(C(F)(F)F)cc5)C4)cc23)COC1 [Compound 148]
// result 200 to 1000 nM

// query If you can, please state the reported EC50 value of CC(=O)Nc1c[nH]c2ccc(OCCC3CCN(c4ccc(C(F)(F)F)cc4)CC3)cc12 [Compound 104] .
// result 200 to 1000 nM

// query Which EC50 is listed for CC(Cc1ccc(C(F)(F)F)cc1)Cc1ccc2[nH]cc(NC(=O)C3CCC3)c2c1 (centres unmarked) [Compound 137] ?
// result 1000 to 5000 nM

// query Suppose we examine the compound O=C(Nc1c[nH]c2ccc(O[C@H]3C[C@H](c4ccc(C(F)(F)F)cc4)C3)cc12)C1CN(CCC(F)(F)F)C1 [Compound 227] ; what EC50 value has been reported?
// result 40 to 200 nM

// query Which EC50 is listed for CC(=O)Nc1c[nH]c2ccc(CCOc3cccc(CC#N)c3)cc12 [Compound 453] ?
// result 1000 to 5000 nM

// query I am curious: what EC50 value has been reported for C[C@H]1C[C@@H](C(=O)Nc2c[nH]c3ccc(OCc4ccc(C(F)(F)F)cc4)cc23)C1 [Compound 321] ?
// result 200 to 1000 nM

// query Reported EC50, compound CC(=O)Nc1c[nH]c2ccc(OCCC34CC(C3)C4)cc12 [Compound 458] : ____
// result 1000 to 5000 nM

// query What value of measured EC50 is listed for CC(=O)Nc1c[nH]c2ccc(CCC3CCN(CC(F)(F)F)CC3)cc12 [Compound 114] ?
// result 200 to 1000 nM

// query I am curious: what EC50 value has been reported for N#CC1(C(=O)Nc2c[nH]c3ccc(CCOc4ccc(C(F)(F)F)cc4)cc23)CC1 [Compound 398] ?
// result 200 to 1000 nM

// query Please look up its EC50: O=C(Nc1c[nH]c2ccc(CCOc3ccc(C(F)(F)F)cc3)cc12)C1CC(F)(F)C1 [Compound 388]
// result 200 to 1000 nM

// query Report EC50 for COCC(=O)Nc1c[nH]c2ccc(COc3ccc(C(F)(F)F)cc3)cc12 [Compound 273] please.
// result 40 to 200 nM

// query Suppose we examine the compound CC(=O)N[C@H]1C[C@@](C)(C(=O)Nc2c[nH]c3ccc(O[C@H]4C[C@@H](c5ccc(C(F)(F)F)cc5)C4)cc23)C1 [Compound 412] ; what EC50 value has been reported?
// result 1000 to 5000 nM

// query For CC(=O)Nc1c[nH]c2ccc(CCOc3ccc(F)c(C(F)(F)F)c3)cc12 [Compound 470] , what is its reported EC50?
// result 200 to 1000 nM

// query GET /values?readout=EC50&item= CC1(C)CC(C(=O)Nc2c[nH]c3ccc(CCOc4ccc(C(F)(F)F)cc4)cc23)C1 [Compound 348]
// result 200 to 1000 nM

// query Which EC50 value is on record for N#C[C@@H]1C[C@@H]1C(=O)Nc1c[nH]c2ccc(CCOc3ccc(C(F)(F)F)cc3)cc12 [Compound 582] ?
// result 40 to 200 nM
